Read-out record for Adenosine receptor A2a (Homo sapiens, UniProt P29274): Ki
Field: numeric (nM). Do not append units.

The recorded Ki for Nc1nc(OCCc2ccc3ccccc3c2)nc2c1ncn2[C@@H]1O[C@H](CO)[C@@H](O)[C@H]1O is 16.1

Ki in this record for Nc1nc(OCCc2cc3ccccc3[nH]2)nc2c1ncn2[C@@H]1O[C@H](CO)[C@@H](O)[C@H]1O : 373

Next molecule, Ki to be filled in.
Entry Nc1nc(OCCCc2ccccc2)nc2c1ncn2[C@@H]1O[C@H](CO)[C@@H](O)[C@H]1O — recorded Ki = 500

====

# TEST_TARGET: Adenosine receptor A2b (Homo sapiens) (UniProt P29275)
# Sequence (P29275 whole entry): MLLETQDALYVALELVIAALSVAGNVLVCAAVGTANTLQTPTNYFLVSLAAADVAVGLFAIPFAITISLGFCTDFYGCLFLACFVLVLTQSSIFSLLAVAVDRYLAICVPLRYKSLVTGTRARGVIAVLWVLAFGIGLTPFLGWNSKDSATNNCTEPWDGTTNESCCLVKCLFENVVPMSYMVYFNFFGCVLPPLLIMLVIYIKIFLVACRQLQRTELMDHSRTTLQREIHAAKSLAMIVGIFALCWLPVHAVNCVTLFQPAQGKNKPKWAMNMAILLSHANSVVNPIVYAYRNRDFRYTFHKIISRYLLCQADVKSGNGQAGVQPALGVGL
# MEASUREMENT_DESCRIPTION: Agonist activity at human adenosine A2B receptor expressed in CHO cells assessed as stimulation of cAMP production at 10 uM
# Assay type: functional, cell-based
Reported Activity is given for each of the following compounds.
Numeric answer only, unit % assumed.

Measured on Adenosine receptor A2b (Homo sapiens) (UniProt P29275), N=C(N)Nc1nc(OCCc2c[nH]c3ccccc23)nc2c1ncn2[C@@H]1O[C@H](CO)[C@@H](O)[C@H]1O has a documented Activity of 40

Sample Nc1nc(OCCc2ccc(F)cc2)nc2c1ncn2[C@@H]1O[C@H](CO)[C@@H](O)[C@H]1O , system: Adenosine receptor A2b (Homo sapiens) (UniProt P29275). Its Activity is 11

So the reported Activity for Nc1nc(OCCc2cc3ccccc3[nH]2)nc2c1ncn2[C@@H]1O[C@H](CO)[C@@H](O)[C@H]1O , on Adenosine receptor A2b (Homo sapiens) (UniProt P29275), turned out to be 49

Activity of Nc1nc(OCCn2nnc3ccccc32)nc2c1ncn2[C@@H]1O[C@H](CO)[C@@H](O)[C@H]1O , assay on Adenosine receptor A2b (Homo sapiens) (UniProt P29275), is 0

Here Cc1ccc(S(=O)(=O)n2cc(CCOc3nc(N)c4ncn([C@@H]5O[C@H](CO)[C@@H](O)[C@H]5O)c4n3)c3ccccc32)cc1 was tested on Adenosine receptor A2b (Homo sapiens) (UniProt P29275), and its Activity came to 43

Log: Adenosine receptor A2b (Homo sapiens) (UniProt P29275), compound Cc1ccc(S(=O)(=O)n2cc(CCOc3nc(N)c4ncn([C@@H]5O[C@H](CO)[C@@H](O)[C@H]5O)c4n3)c3cc(Br)ccc32)cc1 , Activity = 30

Reported Activity (Adenosine receptor A2b (Homo sapiens) (UniProt P29275)) for entry CCOc1nc(N)c2ncn([C@@H]3O[C@H](CO)[C@@H](O)[C@H]3O)c2n1 is -1

Measured on Adenosine receptor A2b (Homo sapiens) (UniProt P29275), COc1ccc2[nH]c(C)c(CCOc3nc(N)c4ncn([C@@H]5O[C@H](CO)[C@@H](O)[C@H]5O)c4n3)c2c1 has a documented Activity of 48
